This section presents compounds with their documented EC50 values.
Biological target: TLR2 (Homo sapiens)
Assay: TLR2 agonist screening assay, HEK-Blue TLR2 reporter cell line (NF-kB-driven SEAP, absorbance at 600 nm)
Format: cell-based
Parameters: host or cells: HEK-293 (HEK-Blue TLR2 reporter cell line)
Conditions: HEK-Blue TLR2 reporter cells, agonist mode; average of all runs (Table 4)

CCCCCCCCCCCCCCNC(=O)[C@H]1CCCN(C(=O)c2ccc(C(=O)N3C[C@@H](C(=O)N[C@H]4C[C@@H]4c4ccccc4)[C@H](C(=O)N[C@H]4C[C@@H]4c4ccccc4)C3)cc2)C1; 0.1 to 50 nM

[Q] Look up EC50: CCCCCCCCCCCCCCNC(=O)[C@@H]1CN(Cc2ccc(C(=O)N3C[C@@H](C(=O)N[C@H]4C[C@@H]4c4ccccc4)[C@H](C(=O)N[C@H]4C[C@@H]4c4ccccc4)C3)cc2)CCN1C
[A] > 1000 nM

[Q] Can you check CCCCCCCCCCCCCCNC(=O)C[C@H]1CCCN1C(=O)c1ccc(C(=O)N2C[C@@H](C(=O)N[C@H]3C[C@@H]3c3ccccc3)[C@H](C(=O)N[C@H]3C[C@@H]3c3ccccc3)C2)cc1 next?
[A] 51 to 350 nM

[Q] Repeat for the following compound: CCCCCCCCCCCCCCNC(=O)[C@H]1CN(C(=O)c2ccc(C(=O)N3C[C@@H](C(=O)N[C@H]4C[C@@H]4c4ccccc4)[C@H](C(=O)N[C@H]4C[C@@H]4c4ccccc4)C3)cc2)CCN1C(C)=O
[A] 351 to 1000 nM

[Q] Param item: CCCCCCCCCCCCCOC(=O)N[C@H]1CN(C(=O)c2ccc(C(=O)N3C[C@@H](C(=O)N[C@H]4C[C@@H]4c4ccccc4)[C@H](C(=O)N[C@H]4C[C@@H]4c4ccccc4)C3)cc2)C[C@@H]1OC
[A] 0.1 to 50 nM

* * *

Target: TLR2 (Homo sapiens, UniProt O60603)
Sequence (O60603 21-784): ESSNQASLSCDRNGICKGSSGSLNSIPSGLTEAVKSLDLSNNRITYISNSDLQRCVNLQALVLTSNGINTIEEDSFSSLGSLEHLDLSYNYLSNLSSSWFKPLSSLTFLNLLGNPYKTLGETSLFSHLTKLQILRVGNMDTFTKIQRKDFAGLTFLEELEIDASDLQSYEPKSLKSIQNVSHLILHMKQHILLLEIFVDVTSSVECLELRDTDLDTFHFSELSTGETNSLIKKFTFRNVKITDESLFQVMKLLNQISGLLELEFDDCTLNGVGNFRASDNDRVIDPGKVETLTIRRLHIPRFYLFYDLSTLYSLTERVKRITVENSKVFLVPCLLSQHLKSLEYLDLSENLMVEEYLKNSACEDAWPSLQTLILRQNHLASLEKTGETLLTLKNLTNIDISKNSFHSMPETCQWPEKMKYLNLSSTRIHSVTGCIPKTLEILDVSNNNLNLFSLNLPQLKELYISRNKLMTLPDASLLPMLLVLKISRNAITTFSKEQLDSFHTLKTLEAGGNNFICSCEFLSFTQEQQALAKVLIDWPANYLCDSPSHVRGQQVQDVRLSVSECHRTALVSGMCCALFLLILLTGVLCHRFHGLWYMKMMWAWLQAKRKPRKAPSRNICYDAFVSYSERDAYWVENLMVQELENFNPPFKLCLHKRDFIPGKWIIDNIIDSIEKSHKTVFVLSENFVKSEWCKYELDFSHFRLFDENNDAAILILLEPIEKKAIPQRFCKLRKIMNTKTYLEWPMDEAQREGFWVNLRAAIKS
Assay: TLR2 agonist screening assay, HEK-Blue TLR2 reporter cell line (NF-kB-driven SEAP, absorbance at 600 nm)
Format: cell-based
Set-up: host or cells: HEK-293 (HEK-Blue TLR2 reporter cell line)
Conditions: HEK-Blue TLR2 reporter cells, agonist mode; average of all runs (Table 4)
pEC50: −log10 of the molar value.
MEASURE: pEC50

Take a look at these entries with their results.
CCCCCCCCCCCCCCNC(=O)[C@@H]1CN(C(=O)c2ccc(C(=O)N3C[C@@H](C(=O)N[C@H]4C[C@@H]4c4ccccc4)[C@H](C(=O)N[C@H]4C[C@@H]4c4ccccc4)C3)cc2)C[C@@H]1OC (single isomer, unassigned) [Compound 107]; 6.00 to 6.45
CCCCCCNC(=O)[C@@H](CNC(=O)CCCCCC)NC(=O)c1ccc(C(=O)N2C[C@@H](C(=O)N[C@H]3C[C@@H]3c3ccccc3)[C@H](C(=O)N[C@H]3C[C@@H]3c3ccccc3)C2)cc1 [Compound 118]; < 6.00
CCCCCCCCCCCCCCNC(=O)[C@@H]1CCCN(C(=O)c2ccc(C(=O)N3C[C@@H](C(=O)N[C@H]4C[C@@H]4c4ccccc4)[C@H](C(=O)N[C@H]4C[C@@H]4c4ccccc4)C3)cc2)C1 [Compound 102]; 7.30 to 10.00

[Q] Which value of pEC50 has been reported for CCCCCCCCCOC(=O)N[C@@H](CNC(=O)c1ccc(C(=O)N2C[C@@H](C(=O)N[C@H]3C[C@@H]3c3ccccc3)[C@H](C(=O)N[C@H]3C[C@@H]3c3ccccc3)C2)cc1)C(=O)NCCCCCC [Compound 229] in the records?
[A] 7.30 to 10.00

[Q] Also CCCCCCCCCC(=O)N[C@@H](CN1Cc2ccc(C(=O)N3C[C@@H](C(=O)N[C@H]4C[C@@H]4c4ccccc4)[C@H](C(=O)N[C@H]4C[C@@H]4c4ccccc4)C3)cc2C1=O)C(=O)NCCCCCC [Compound 241] , if possible.
[A] 6.46 to 7.29

[Q] Try this compound next: CCCCCCCCCCCCCCCN1C[C@@H](NC(=O)c2ccc(C(=O)N3C[C@@H](C(=O)N[C@H]4C[C@@H]4c4ccccc4)[C@H](C(=O)N[C@H]4C[C@@H]4c4ccccc4)C3)cc2)CCC1=O [Compound 180]
[A] < 6.00

[Q] Next record, please: CCCCCCCCC(=O)N[C@@H](CNC(=O)c1ccc(C(=O)N2C[C@@H](C(=O)N[C@H]3C[C@@H]3c3ccccc3)[C@H](C(=O)N[C@H]3C[C@@H]3c3ccccc3)C2)cc1)C(=O)NCCCCCC [Compound 140]
[A] 7.30 to 10.00

[Q] Also CCCCCCCCCCCCCCC(=O)N[C@@H]1CN(C(=O)c2ccc(C(=O)N3C[C@@H](C(=O)N[C@H]4C[C@@H]4c4ccccc4)[C@H](C(=O)N[C@H]4C[C@@H]4c4ccccc4)C3)cc2)C[C@H]1OC [Compound 154] ?
[A] 6.00 to 6.45

[Q] Same lookup for CCCCCCCCCCCCCCOC(=O)N[C@H]1CN(C(=O)c2ccc(C(=O)N3C[C@@H](C(=O)N[C@H]4C[C@@H]4c4ccccc4)[C@H](C(=O)N[C@H]4C[C@@H]4c4ccccc4)C3)cc2)C[C@@H]1OC [Compound 218] , please.
[A] 6.00 to 6.45

[Q] Now the compound CCCCCCCNC(=O)[C@H](CNC(=O)c1ccc(C(=O)N2C[C@@H](C(=O)N[C@H]3C[C@@H]3c3ccccc3)[C@H](C(=O)N[C@H]3C[C@@H]3c3ccccc3)C2)cc1)NC(=O)CCCCCCC [Compound 184]
[A] 7.30 to 10.00

[Q] Please give the result for CCCCCCC(=O)N[C@@H](CNC(=O)c1ccc(C(=O)N2C[C@@H](C(=O)N[C@H]3C[C@@H]3c3ccccc3)[C@H](C(=O)N[C@H]3C[C@@H]3c3ccccc3)C2)cc1)C(=O)NCc1ccc(F)cc1 [Compound 128] too.
[A] < 6.00

[Q] Further, for CCCCCCCCCCCOC(=O)N[C@H]1CN(C(=O)c2ccc(C(=O)N3C[C@@H](C(=O)N[C@H]4C[C@@H]4c4ccccc4)[C@H](C(=O)N[C@H]4C[C@@H]4c4ccccc4)C3)cc2)C[C@@H]1OC [Compound 215] ?
[A] 6.46 to 7.29

[Q] Okay, and CCCCCCC(=O)N[C@@H](CNC(=O)c1ccc(C(=O)N2C[C@@H](C(=O)N[C@H]3C[C@@H]3c3ccccc3)[C@H](C(=O)N[C@H]3C[C@@H]3c3ccccc3)C2)cc1)C(=O)NCCCC [Compound 131] ?
[A] 6.00 to 6.45

[Q] Field entry: CCCCCCCCCCCCCCC(=O)NC1CCN(C(=O)c2cccc(C(=O)N3C[C@@H](C(=O)N[C@H]4C[C@@H]4c4ccccc4)[C@H](C(=O)N[C@H]4C[C@@H]4c4ccccc4)C3)c2)CC1 [Compound 166]
[A] < 6.00

[Q] Likewise for CCCCCCCCCCCCCCNC(=O)[C@@H]1CN(C(=O)c2ccc(C(=O)N3C[C@@H](C(=O)N[C@H]4C[C@@H]4c4ccccc4)[C@H](C(=O)N[C@H]4C[C@@H]4c4ccccc4)C3)cc2)C[C@H]1OC [Compound 109] ?
[A] 7.30 to 10.00

[Q] One more compound: CCCCCCCCCCCCCNC(=O)N[C@H]1CN(C(=O)c2ccc(C(=O)N3C[C@@H](C(=O)N[C@H]4C[C@@H]4c4ccccc4)[C@H](C(=O)N[C@H]4C[C@@H]4c4ccccc4)C3)cc2)C[C@H]1OC [Compound 210]
[A] 7.30 to 10.00

[Q] And then CCCCCCCCCCCCCCC(=O)N[C@@H]1CN(C(=O)c2ccc(C(=O)N3C[C@@H](C(=O)N[C@H]4C[C@@H]4c4ccccc4)[C@H](C(=O)N[C@H]4C[C@@H]4c4ccccc4)C3)cc2)C[C@H]1O [Compound 157] , what is it?
[A] 6.00 to 6.45

[Q] Next up: CCCCCCCCCCCCCCCN[C@@H]1CCN(C(=O)c2ccc(C(=O)N3C[C@@H](C(=O)N[C@H]4C[C@@H]4c4ccccc4)[C@H](C(=O)N[C@H]4C[C@@H]4c4ccccc4)C3)cc2)C1 [Compound 082]
[A] < 6.00

* * *

Molecular target: TLR2 (Homo sapiens, UniProt O60603)
Assay: TLR2 agonist screening assay, HEK-Blue TLR2 reporter cell line (NF-kB-driven SEAP, absorbance at 600 nm)
Format: cell-based
Design: host or cells: HEK-293 (HEK-Blue TLR2 reporter cell line)
Details: HEK-Blue TLR2 reporter cells, agonist mode; average of all runs (Table 4)
MEASURE: EC50

Example compounds with recorded EC50:
CCCCCCCCN1CC(C(=O)NCCCCCC)CN(Cc2ccc(C(=O)N3C[C@@H](C(=O)N[C@H]4C[C@@H]4c4ccccc4)[C@H](C(=O)N[C@H]4C[C@@H]4c4ccccc4)C3)cc2)C1=O (some centres unmarked); 351 to 1000 nM
CCCCCNC(=O)[C@@H]1CN(C(=O)c2ccc(C(=O)N3C[C@@H](C(=O)N[C@H]4C[C@@H]4c4ccccc4)[C@H](C(=O)N[C@H]4C[C@@H]4c4ccccc4)C3)cc2)CCN1C(C)=O; > 1000 nM
CCCCCCCCCCCCCCNC(=O)[C@H]1CN(C(=O)c2ccc(C(=O)N3C[C@@H](C(=O)N[C@H]4C[C@@H]4c4ccccc4)[C@H](C(=O)N[C@H]4C[C@@H]4c4ccccc4)C3)cc2)CCO1; 51 to 350 nM

[Q] Checklist item: EC50 tested on TLR2 (Homo sapiens, UniProt O60603), entry CCCCCCCCNC(=O)[C@H](CNC(=O)c1ccc(C(=O)N2C[C@@H](C(=O)N[C@H]3C[C@@H]3c3ccccc3)[C@H](C(=O)N[C@H]3C[C@@H]3c3ccccc3)C2)cc1)NC(=O)CCCCCCCC , value?
[A] 0.1 to 50 nM

[Q] Continue with CCCCCCCCCCCCCCNC(=O)C[C@@H]1CCCN1C(=O)c1ccc(C(=O)N2C[C@@H](C(=O)N[C@H]3C[C@@H]3c3ccccc3)[C@H](C(=O)N[C@H]3C[C@@H]3c3ccccc3)C2)cc1
[A] > 1000 nM

[Q] Input CCCCCCCCCCCCCCNC(=O)[C@@H]1CN(C(=O)c2ccc(C(=O)N3C[C@@H](C(=O)N[C@H]4C[C@@H]4c4ccccc4)[C@H](C(=O)N[C@H]4C[C@@H]4c4ccccc4)C3)cc2)CCN1C(=O)CC(C)C
[A] > 1000 nM

[Q] CCCCCCC(=O)N[C@@H](CNC(=O)c1ccc(C(=O)N2C[C@@H](C(=O)N[C@H]3C[C@@H]3c3ccccc3)[C@H](C(=O)N[C@H]3C[C@@H]3c3ccccc3)C2)cc1)C(=O)N[C@H]1C[C@@H]1c1ccccc1 ?
[A] 51 to 350 nM

[Q] Please do the same for CCCCCCCCCCCCCCNC(=O)[C@@H]1CN(C(=O)c2ccc(C(=O)N3C[C@@H](C(=O)N[C@H]4C[C@@H]4c4ccccc4)[C@H](C(=O)N[C@H]4C[C@@H]4c4ccccc4)C3)cc2)C[C@H]1O (single isomer, unassigned) as well.
[A] 51 to 350 nM
